experiment: Cmax in mouse at 10 mg/kg, po; assay type: ADME, organism-based; set-up: dose 10 mg/kg, route oral; conditions: in vivo
MEASURE NAME: Cmax (ng/mL)
Answers are plain numbers, in ng/mL.

Each compound below has a reported value. Please supply its Cmax.
1. Cc1cn(-c2cc(NC(=O)c3ccc(C)c(/C=C/n4cnc5c(NC6CC6)ncnc54)c3)cc(C(F)(F)F)c2)cn1
2. Cc1ccc(C(=O)Nc2cc(C(F)(F)F)ccn2)cc1/C=C/n1cnc2c(NC3CC3)ncnc21

## Result
1. 1020
2. 3100

###

experiment: Tmax in mouse at 10 mg/kg, po; type: ADME, organism-based; parameters: dose 10 mg/kg, route oral; details: in vivo
MEASURE NAME: Tmax (h)
Numbers only, in h.

Cc1ccc(C(=O)Nc2cc(C(F)(F)F)ccn2)cc1/C=C/n1cnc2c(NC3CC3)ncnc21	2

Moving on to another compound below.
## Task Specify Tmax for "Cc1cn(-c2cc(NC(=O)c3ccc(C)c(/C=C/n4cnc5c(NC6CC6)ncnc54)c3)cc(C(F)(F)F)c2)cn1" and stop.
## Result 1

###

test: Volume of distribution in CD rat at 5 mg/kg, iv; assay type: ADME, organism-based; set-up: dose 5 mg/kg, route intravenous; details: in vivo
MEASURE NAME: Vd (L/kg)
Numbers only, in L/kg.

Here are 5 molecules together with their reported answers.
CNc1ncnc2c1ncn2/C=C/c1cc(NC(=O)c2cccc(C(F)(F)F)c2)ccc1C	1.6
Cc1ccc(NC(=O)c2cccc(C(F)(F)F)c2)cc1/C=C/n1cnc2c(Nc3ccncc3)ncnc21	9.01
Cc1ccc(C(=O)Nc2cccc(C(C)(C)C)c2)cc1/C=C/n1cnc2c(NC3CC3)ncnc21	5.31
Cc1ccc(NC(=O)c2cccc(C(F)(F)F)c2)cc1/C=C/n1cnc2c(Nc3cccnc3)ncnc21	1.7
Cc1ccc(NC(=O)c2cccc(C(F)(F)F)c2)cc1/C=C/n1cnc2c(NC3CC3)ncnc21	1.08

Okay, here is my list. What is Vd for each of these?
1. Cc1ccc(NC(=O)c2cccc(C(F)(F)F)c2)cc1/C=C/n1cnc2c(Nc3ccc(P(C)(C)=O)cc3)ncnc21
2. Cc1ccc(C(=O)Nc2cc(C(C)(C)C)on2)cc1/C=C/n1cnc2c(NC3CC3)ncnc21
3. Cc1ccc(C(=O)Nc2cc(C(F)(F)F)ccn2)cc1/C=C/n1cnc2c(NC3CC3)ncnc21
4. Cc1cn(-c2cc(NC(=O)c3ccc(C)c(/C=C/n4cnc5c(NC6CC6)ncnc54)c3)cc(C(F)(F)F)c2)cn1

## Result
1: 3.54; 2: 4.87; 3: 0.34; 4: 0.78

###

Let's go through some recorded IC50 values for Tyrosine-protein kinase ABL1 (Homo sapiens, UniProt P00519) together.
Value and unit, in that order.

Cc1ccc(C(=O)Nc2ncc(C(C)(C)C)s2)cc1/C=C/n1cnc2c(NC3CC3)ncnc21	267 nM
Cc1ccc(C(=O)Nc2cc(C(F)(F)F)ccc2F)cc1/C=C/n1cnc2c(NC3CC3)ncnc21	236 nM

In the following, a different compound is considered.
## Task Tell me IC50 reported for "Cc1ccc(NC(=O)c2cccc(C(F)(F)F)c2)cc1/C=C/n1cnc2c(NCCCN(C)C)ncnc21"
## Result 157 nM

###

experiment: Clearance in CD rat at 5 mg/kg, iv; assay type: ADME, organism-based; design: dose 5 mg/kg, route intravenous; settings: in vivo
MEASURE NAME: clearance (mL/min/kg)
Give bare numbers, in mL/min/kg.

Illustrative cases are given below, each with its answer.
Cc1ccc(NC(=O)c2cccc(C(F)(F)F)c2)cc1/C=C/n1cnc2c(Nc3ccc(P(C)(C)=O)cc3)ncnc21	13.2
Cc1ccc(C(=O)Nc2cc(C(F)(F)F)ccn2)cc1/C=C/n1cnc2c(NC3CC3)ncnc21	0.667
Cc1ccc(C(=O)Nc2cccc(C(C)(C)C)c2)cc1/C=C/n1cnc2c(NC3CC3)ncnc21	29.8
CNc1ncnc2c1ncn2/C=C/c1cc(NC(=O)c2cccc(C(F)(F)F)c2)ccc1C	6.33
Cc1ccc(NC(=O)c2cccc(C(F)(F)F)c2)cc1/C=C/n1cnc2c(Nc3ccncc3)ncnc21	16

Give one value of clearance per listed compound.
1. Cc1ccc(C(=O)Nc2cc(C(C)(C)C)on2)cc1/C=C/n1cnc2c(NC3CC3)ncnc21
2. Cc1ccc(NC(=O)c2cccc(C(F)(F)F)c2)cc1/C=C/n1cnc2c(NC3CC3)ncnc21
3. Cc1ccc(NC(=O)c2cccc(C(F)(F)F)c2)cc1/C=C/n1cnc2c(Nc3cccnc3)ncnc21
4. Cc1cn(-c2cc(NC(=O)c3ccc(C)c(/C=C/n4cnc5c(NC6CC6)ncnc54)c3)cc(C(F)(F)F)c2)cn1

## Result
1. 15
2. 3.17
3. 8.17
4. 1
